Data provenance: the supplement of paper PMC7877785

assay: self-splicing fitness, log relative to wild type (ln ratio); higher = more splicing; Tetrahymena group I intron in knt gene, E. coli kanamycin selection, DiMSum; sequences stand for … in CUCUCU…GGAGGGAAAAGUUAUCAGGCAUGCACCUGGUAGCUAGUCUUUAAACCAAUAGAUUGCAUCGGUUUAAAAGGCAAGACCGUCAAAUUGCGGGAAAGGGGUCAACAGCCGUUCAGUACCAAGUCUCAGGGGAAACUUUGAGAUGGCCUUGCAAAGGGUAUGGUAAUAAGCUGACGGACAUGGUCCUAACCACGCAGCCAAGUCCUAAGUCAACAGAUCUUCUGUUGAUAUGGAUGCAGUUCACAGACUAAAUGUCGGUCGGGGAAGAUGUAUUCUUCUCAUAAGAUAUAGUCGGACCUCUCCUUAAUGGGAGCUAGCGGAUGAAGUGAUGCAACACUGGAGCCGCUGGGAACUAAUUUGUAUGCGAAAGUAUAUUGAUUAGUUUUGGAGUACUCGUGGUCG; settings: 37 °C;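 further: selection with 25 µg/mL kanamycin versus none on LB agar overnight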
test readout: self-splicing fitness (ln)

[[record]]
input_sequence = "GGUAAGCAAUAUUACGGUUU"
test_readout = "self-splicing fitness (ln)"
data_value = -0.0713

[[record]]
input_sequence = "GCCCAGCAAUAUUACGUAUA"
test_readout = "self-splicing fitness (ln)"
data_value = -1.33

[[record]]
input_sequence = "CGACAGCAAUAUUACGCCUC"
test_readout = "self-splicing fitness (ln)"
data_value = -0.498

[[record]]
input_sequence = "CCCUAGCAAUAUUACGGCUG"
test_readout = "self-splicing fitness (ln)"
data_value = -1.38

[[record]]
input_sequence = "AGACAGCAAUAUUACGUGGA"
test_readout = "self-splicing fitness (ln)"
data_value = -2.37

[[record]]
input_sequence = "GGAAAGCAAUAUUACGUAAG"
test_readout = "self-splicing fitness (ln)"
data_value = -1.18

[[record]]
input_sequence = "UAUUAGCAAUAUUACGCAGG"
test_readout = "self-splicing fitness (ln)"
data_value = -0.962

[[record]]
input_sequence = "AUUGAGCAAUAUUACGGCUU"
test_readout = "self-splicing fitness (ln)"
data_value = -0.8

[[record]]
input_sequence = "GGGAAGCAAUAUUACGUCUG"
test_readout = "self-splicing fitness (ln)"
data_value = -0.174

[[record]]
input_sequence = "CCGGAGCAAUAUUACGGGUG"
test_readout = "self-splicing fitness (ln)"
data_value = -1.09

[[record]]
input_sequence = "CGCCAGCAAUAUUACGAGCA"
test_readout = "self-splicing fitness (ln)"
data_value = 0.817

[[record]]
input_sequence = "CCGGAGCAAUAUUACGCCGG"
test_readout = "self-splicing fitness (ln)"
data_value = -3.09

[[record]]
input_sequence = "CACCAGCAAUAUUACGUGUU"
test_readout = "self-splicing fitness (ln)"
data_value = -2.67

[[record]]
input_sequence = "AUCCAGCAAUAUUACGCAAU"
test_readout = "self-splicing fitness (ln)"
data_value = -0.773

[[record]]
input_sequence = "UGCUAGCAAUAUUACGGAGA"
test_readout = "self-splicing fitness (ln)"
data_value = -2

[[record]]
input_sequence = "ACUGAGCAAUAUUACGACGU"
test_readout = "self-splicing fitness (ln)"
data_value = -1.66

[[record]]
input_sequence = "UAUAAGCAAUAUUACGACUG"
test_readout = "self-splicing fitness (ln)"
data_value = 0.22

[[record]]
input_sequence = "AAUUAGCAAUAUUACGCAUG"
test_readout = "self-splicing fitness (ln)"
data_value = 0.109

[[record]]
input_sequence = "CGCGAGCAAUAUUACGGCGU"
test_readout = "self-splicing fitness (ln)"
data_value = -2.9

[[record]]
input_sequence = "AUAUAGCAAUAUUACGAGCA"
test_readout = "self-splicing fitness (ln)"
data_value = -0.917

[[record]]
input_sequence = "UUUAAGCAAUAUUACGGAAA"
test_readout = "self-splicing fitness (ln)"
data_value = -0.53

[[record]]
input_sequence = "GCCUAGCAAUAUUACGAUCG"
test_readout = "self-splicing fitness (ln)"
data_value = -1.36

[[record]]
input_sequence = "AUAGAGCAAUAUUACGAUGA"
test_readout = "self-splicing fitness (ln)"
data_value = -1.75

[[record]]
input_sequence = "UGAGAGCAAUAUUACGUCGG"
test_readout = "self-splicing fitness (ln)"
data_value = -1.77

[[record]]
input_sequence = "GUACAGCAAUAUUACGCGCU"
test_readout = "self-splicing fitness (ln)"
data_value = -0.689

[[record]]
input_sequence = "CUGCAGCAAUAUUACGGAGC"
test_readout = "self-splicing fitness (ln)"
data_value = -2.61

[[record]]
input_sequence = "AAAAAGCAAUAUUACGUGAC"
test_readout = "self-splicing fitness (ln)"
data_value = -2.31

[[record]]
input_sequence = "ACACAGCAAUAUUACGGUGC"
test_readout = "self-splicing fitness (ln)"
data_value = -2.61

[[record]]
input_sequence = "GGUUAGCAAUAUUACGGAAA"
test_readout = "self-splicing fitness (ln)"
data_value = -1.76

[[record]]
input_sequence = "CUGCAGCAAUAUUACGGUGC"
test_readout = "self-splicing fitness (ln)"
data_value = -1.96

[[record]]
input_sequence = "AAGUAGCAAUAUUACGUGAA"
test_readout = "self-splicing fitness (ln)"
data_value = -1.78

[[record]]
input_sequence = "UGUCAGCAAUAUUACGCACG"
test_readout = "self-splicing fitness (ln)"
data_value = -0.829

[[record]]
input_sequence = "GUAGAGCAAUAUUACGGGAU"
test_readout = "self-splicing fitness (ln)"
data_value = -1.19

[[record]]
input_sequence = "GAGCAGCAAUAUUACGCAAG"
test_readout = "self-splicing fitness (ln)"
data_value = -0.218


---

experiment: self-splicing fitness, log relative to wild type (ln ratio); higher = more splicing; Tetrahymena group I intron in knt gene, E. coli kanamycin selection, DiMSum; sequences stand for … in CUCUCU…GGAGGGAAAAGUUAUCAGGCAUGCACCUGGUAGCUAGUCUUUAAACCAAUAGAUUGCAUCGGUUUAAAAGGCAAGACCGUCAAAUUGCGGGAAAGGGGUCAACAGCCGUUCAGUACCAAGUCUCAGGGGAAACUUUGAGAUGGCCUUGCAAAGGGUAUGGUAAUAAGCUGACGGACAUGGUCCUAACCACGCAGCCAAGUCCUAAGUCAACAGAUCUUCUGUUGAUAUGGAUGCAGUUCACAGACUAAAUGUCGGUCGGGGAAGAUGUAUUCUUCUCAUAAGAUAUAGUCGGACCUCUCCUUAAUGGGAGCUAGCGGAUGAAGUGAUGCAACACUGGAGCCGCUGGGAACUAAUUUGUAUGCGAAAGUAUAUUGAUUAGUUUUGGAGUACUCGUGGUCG; settings: 37 °C
Would you mind sorting the entries by self-splicing fitness (ln) according to these classes? band A (below -2), band B (-2 to below -0.8), band C (-0.8 or more)

[[record]]
input_sequence = "UACAAGCAAUAUUACGACCU"
assigned_category = "band C"

[[record]]
input_sequence = "UCGAAGCAAUAUUACGGACG"
assigned_category = "band C"

[[record]]
input_sequence = "ACUUAGCAAUAUUACGCUCU"
assigned_category = "band C"

[[record]]
input_sequence = "UUAAAGCAAUAUUACGUAGU"
assigned_category = "band B"

[[record]]
input_sequence = "UAGGAGCAAUAUUACGUGAA"
assigned_category = "band B"

[[record]]
input_sequence = "GGUCAGCAAUAUUACGCAGC"
assigned_category = "band B"

[[record]]
input_sequence = "UACAAGCAAUAUUACGAGAA"
assigned_category = "band A"

[[record]]
input_sequence = "GCGAAGCAAUAUUACGGUUA"
assigned_category = "band B"

[[record]]
input_sequence = "CUCUAGCAAUAUUACGCUGA"
assigned_category = "band A"

[[record]]
input_sequence = "GCUAAGCAAUAUUACGGAGU"
assigned_category = "band A"

[[record]]
input_sequence = "CGGUAGCAAUAUUACGUGGC"
assigned_category = "band A"

[[record]]
input_sequence = "CCAUAGCAAUAUUACGCAAA"
assigned_category = "band A"


---

assay: self-splicing fitness, log relative to wild type (ln ratio); higher = more splicing; Tetrahymena group I intron in knt gene, E. coli kanamycin selection, DiMSum; sequences stand for … in CUCUCU…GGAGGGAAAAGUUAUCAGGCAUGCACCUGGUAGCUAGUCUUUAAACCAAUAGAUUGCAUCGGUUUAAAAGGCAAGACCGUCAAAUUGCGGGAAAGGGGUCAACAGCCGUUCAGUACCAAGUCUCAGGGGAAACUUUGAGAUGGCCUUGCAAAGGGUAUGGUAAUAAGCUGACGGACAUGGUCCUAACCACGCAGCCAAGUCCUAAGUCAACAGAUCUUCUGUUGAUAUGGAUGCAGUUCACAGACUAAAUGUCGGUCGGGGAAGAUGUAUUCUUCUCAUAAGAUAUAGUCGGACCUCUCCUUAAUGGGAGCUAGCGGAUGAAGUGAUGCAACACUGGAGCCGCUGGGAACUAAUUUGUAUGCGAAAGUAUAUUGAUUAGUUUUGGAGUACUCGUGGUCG; conditions: 30 °C
Would you mind sorting the entries by self-splicing fitness (ln) according to these classes? group A: < -3; group B: ≥ -3 and < -2; group C: ≥ -2

[[record]]
input_sequence = "GGCUAGCAAUAUUACGCAAG"
assigned_category = "group A"

[[record]]
input_sequence = "CACUAGCAAUAUUACGAAGU"
assigned_category = "group B"

[[record]]
input_sequence = "UAACAGCAAUAUUACGUGCA"
assigned_category = "group C"

[[record]]
input_sequence = "AAACAGCAAUAUUACGAUAC"
assigned_category = "group B"

[[record]]
input_sequence = "CAACAGCAAUAUUACGGUUA"
assigned_category = "group C"

[[record]]
input_sequence = "CCUUAGCAAUAUUACGCAGU"
assigned_category = "group A"

[[record]]
input_sequence = "CAAAAGCAAUAUUACGGGAU"
assigned_category = "group A"

[[record]]
input_sequence = "GUACAGCAAUAUUACGCGAA"
assigned_category = "group B"

[[record]]
input_sequence = "CGCCAGCAAUAUUACGCUGG"
assigned_category = "group A"

[[record]]
input_sequence = "CGCCAGCAAUAUUACGAGCA"
assigned_category = "group C"

[[record]]
input_sequence = "AUCCAGCAAUAUUACGGUAC"
assigned_category = "group C"

[[record]]
input_sequence = "CACAAGCAAUAUUACGUGAU"
assigned_category = "group A"

[[record]]
input_sequence = "CCAAAGCAAUAUUACGAACA"
assigned_category = "group A"

[[record]]
input_sequence = "UAUUAGCAAUAUUACGCGUC"
assigned_category = "group A"

[[record]]
input_sequence = "GCCUAGCAAUAUUACGAUUA"
assigned_category = "group A"

[[record]]
input_sequence = "ACCAAGCAAUAUUACGUGAC"
assigned_category = "group A"

[[record]]
input_sequence = "ACAAAGCAAUAUUACGCGCG"
assigned_category = "group C"

[[record]]
input_sequence = "GCGUAGCAAUAUUACGUUCA"
assigned_category = "group C"

[[record]]
input_sequence = "AGCUAGCAAUAUUACGUGAA"
assigned_category = "group C"

[[record]]
input_sequence = "GUGGAGCAAUAUUACGAAUG"
assigned_category = "group A"

[[record]]
input_sequence = "GAACAGCAAUAUUACGACGA"
assigned_category = "group C"

[[record]]
input_sequence = "UGGAAGCAAUAUUACGUCUA"
assigned_category = "group C"

[[record]]
input_sequence = "AGGUAGCAAUAUUACGUCAG"
assigned_category = "group B"

[[record]]
input_sequence = "ACAAAGCAAUAUUACGUCAC"
assigned_category = "group A"

[[record]]
input_sequence = "GCUUAGCAAUAUUACGAGAC"
assigned_category = "group B"

[[record]]
input_sequence = "UCCUAGCAAUAUUACGGAUA"
assigned_category = "group B"

[[record]]
input_sequence = "AAGGAGCAAUAUUACGUCCG"
assigned_category = "group C"

[[record]]
input_sequence = "AGUAAGCAAUAUUACGAGGC"
assigned_category = "group B"

[[record]]
input_sequence = "CUCCAGCAAUAUUACGAGUA"
assigned_category = "group B"

[[record]]
input_sequence = "GGUCAGCAAUAUUACGAUGG"
assigned_category = "group C"

[[record]]
input_sequence = "GACAAGCAAUAUUACGUUUG"
assigned_category = "group B"

[[record]]
input_sequence = "GGUUAGCAAUAUUACGCCCU"
assigned_category = "group C"

[[record]]
input_sequence = "GCCGAGCAAUAUUACGCCCU"
assigned_category = "group B"

[[record]]
input_sequence = "GGGUAGCAAUAUUACGCACA"
assigned_category = "group C"

[[record]]
input_sequence = "UCCCAGCAAUAUUACGUGUG"
assigned_category = "group A"

[[record]]
input_sequence = "AUGGAGCAAUAUUACGAGGG"
assigned_category = "group A"

[[record]]
input_sequence = "GAUAAGCAAUAUUACGGUGG"
assigned_category = "group B"

[[record]]
input_sequence = "UCGUAGCAAUAUUACGUUCA"
assigned_category = "group C"

[[record]]
input_sequence = "UUACAGCAAUAUUACGAACA"
assigned_category = "group C"

[[record]]
input_sequence = "ACCUAGCAAUAUUACGACGU"
assigned_category = "group C"

[[record]]
input_sequence = "AGACAGCAAUAUUACGAUAC"
assigned_category = "group B"

[[record]]
input_sequence = "CGGCAGCAAUAUUACGUAGA"
assigned_category = "group B"

[[record]]
input_sequence = "CUCAAGCAAUAUUACGUCAA"
assigned_category = "group A"

[[record]]
input_sequence = "CCGAAGCAAUAUUACGGCUG"
assigned_category = "group C"

[[record]]
input_sequence = "AGCUAGCAAUAUUACGCUGG"
assigned_category = "group A"

[[record]]
input_sequence = "CCGUAGCAAUAUUACGUGCC"
assigned_category = "group A"

[[record]]
input_sequence = "UGACAGCAAUAUUACGUAAG"
assigned_category = "group C"

